- Tested on: GST-Co-NF-kB (Capsaspora owczarzaki, UniProt F1ARL5 200-546)
- Sequence: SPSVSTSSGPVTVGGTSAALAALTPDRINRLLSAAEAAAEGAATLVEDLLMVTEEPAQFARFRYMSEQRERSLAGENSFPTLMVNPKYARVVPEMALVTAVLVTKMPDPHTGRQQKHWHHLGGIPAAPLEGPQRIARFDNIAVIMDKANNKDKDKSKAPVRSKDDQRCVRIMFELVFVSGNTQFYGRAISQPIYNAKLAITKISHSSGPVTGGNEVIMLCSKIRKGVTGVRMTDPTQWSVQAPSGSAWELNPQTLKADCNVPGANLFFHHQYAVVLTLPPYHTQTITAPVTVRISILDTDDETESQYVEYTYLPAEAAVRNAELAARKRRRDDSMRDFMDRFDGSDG
- Experiment description: protein-binding microarray (PBM); PBM: ~300 nM protein, 6 mM HEPES pH 7.8, 80 mM KCl, 0.5 mM EDTA, 0.5 mM EGTA, 6% glycerol, 35 ng/ul poly-dIdC, 1% milk, 1 h, room temperature; Ap Aiptasia and Nv Nematostella (sea anemones) / Co Capsaspora / Aq Amphimedon (sponge) / Dm Drosophila / Hu human; RHD is the Rel homology domain; high values mean tight binding
- Experimental setup: dsDNA, one strand shown
Threshold-based label: binding signal under 3 z-score gives 1, binding signal not under 3 z-score gives -1.

// below: answered sequences
| Macromolecule sequence | Label value |
| --- | --- |
| CCGATTAACATCAGGGCTGCCCCTGATGTTAATCGGGTCTTGATTCGCTTGACGCTGCTG | 1 |
| CCGATTAACATCACAAACTTCCCTGATGTTAATCGGGTCTTGATTCGCTTGACGCTGCTG | 1 |
| CCGATTAACATCAGAGCTTCCCCTGATGTTAATCGGGTCTTGATTCGCTTGACGCTGCTG | -1 |
| CCGATTAACATCAGGATACCCCCTGATGTTAATCGGGTCTTGATTCGCTTGACGCTGCTG | -1 |
| CCGATTAACATCAATTCACCCCCTGATGTTAATCGGGTCTTGATTCGCTTGACGCTGCTG | -1 |

Incoming: Please let me know if CCGATTAACATCAAGGGTGGAAATGATGTTAATCGGGTCTTGATTCGCTTGACGCTGCTG shows binding signal below 3 z-score.
Outgoing: 1

Incoming: Quick one: CCGATTAACATCAGGATTCTCCCTGATGTTAATCGGGTCTTGATTCGCTTGACGCTGCTG
Outgoing: 1

Incoming: Quick one: CCGATTAACATCAACGTGATTTGTGATGTTAATCGGGTCTTGATTCGCTTGACGCTGCTG
Outgoing: 1

Incoming: Quick one: CCGATTAACATCAGGGATTTCTATGATGTTAATCGGGTCTTGATTCGCTTGACGCTGCTG
Outgoing: 1

Incoming: Quick one: CCGATTAACATCACAAAAATCCCTGATGTTAATCGGGTCTTGATTCGCTTGACGCTGCTG
Outgoing: 1

Incoming: Quick one: CCGATTAACATCAGGGCAACCCCTGATGTTAATCGGGTCTTGATTCGCTTGACGCTGCTG
Outgoing: 1

Incoming: Quick one: CCGATTAACATCAATAAATCCCCTGATGTTAATCGGGTCTTGATTCGCTTGACGCTGCTG
Outgoing: -1

Incoming: Quick one: CCGATTAACATCAGGGGAAGTAATGATGTTAATCGGGTCTTGATTCGCTTGACGCTGCTG
Outgoing: -1

Incoming: Quick one: CCGATTAACATCAGGGGATACACTGATGTTAATCGGGTCTTGATTCGCTTGACGCTGCTG
Outgoing: -1

Incoming: Quick one: CCGATTAACATCAGGGGTCCCCATGATGTTAATCGGGTCTTGATTCGCTTGACGCTGCTG
Outgoing: 1

Incoming: Quick one: CCGATTAACATCACAAAAAACCCTGATGTTAATCGGGTCTTGATTCGCTTGACGCTGCTG
Outgoing: 1

Incoming: Quick one: CCGATTAACATCAACGATTCCCCTGATGTTAATCGGGTCTTGATTCGCTTGACGCTGCTG
Outgoing: -1

Incoming: Quick one: CCGATTAACATCAGGAAAAAAACTGATGTTAATCGGGTCTTGATTCGCTTGACGCTGCTG
Outgoing: 1

Incoming: Quick one: CCGATTAACATCAGGAAAGCCCCTGATGTTAATCGGGTCTTGATTCGCTTGACGCTGCTG
Outgoing: 1

Incoming: Quick one: CCGATTAACATCAGGGAATCCACTGATGTTAATCGGGTCTTGATTCGCTTGACGCTGCTG
Outgoing: 1

Incoming: Quick one: CCGATTAACATCAGAGTCCCCCCTGATGTTAATCGGGTCTTGATTCGCTTGACGCTGCTG
Outgoing: -1

Incoming: Quick one: CCGATTAACATCAGGGATTTTCATGATGTTAATCGGGTCTTGATTCGCTTGACGCTGCTG
Outgoing: 1

Incoming: Quick one: CCGATTAACATCAAGGGAAATCCTGATGTTAATCGGGTCTTGATTCGCTTGACGCTGCTG
Outgoing: -1

Incoming: Quick one: CCGATTAACATCAGGAAACTCCCTGATGTTAATCGGGTCTTGATTCGCTTGACGCTGCTG
Outgoing: 1
